Tested on: polyoma virus transformed BHK21/c13 cells, line S100T1
Assay info: Collocation inhibition test: clonal growth in sparsely and densely seeded areas of a cell density gradient of S100T1 cells in soft agar (Exp 13, 17, 19-26);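 also: grades from − to +++ rise with clonal growth while − and +− count as negative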;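 also: soft agar cultures in 24-well plates with a cell density gradient in the top layer, compounds applied from DMSO stocks, clonal growth scored in sparse versus dense areas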
Measurement conditions: Summary Table 3 of analogue tests (experiments 22-25); L (low cell density); Medium concentration
Property name: Clonal growth

Some molecules with recorded Clonal growth:
Query: Clonal growth lookup needed for Oc1ccc(N=Nc2ccccc2)cc1 [#1, p-hydroxy-azobenzene] , thanks.
Result: ++

Query: Clonal growth for CCCCC(C(=O)Nc1ccccc1)C(=O)Nc1ccc(O)cc1 (centres unmarked) [#4] ?
Result: ++

Query: Request the reported Clonal growth associated with CCCCC1(O)C(=O)N(c2ccccc2)N(c2ccc(OC)cc2)C1=O (centres unmarked) [#7]
Result: ++

Query: State the recorded Clonal growth for this entry: Cc1ccc(C2(O)C(=O)N(c3ccccc3)N(c3ccccc3)C2=O)cc1 [#8]
Result: +(+)

Query: Entry CCCCC(O)(C(=O)Nc1ccccc1)C(=O)Nc1ccc(O)cc1 (centres unmarked) [#2] has what Clonal growth?
Result: ++

Query: Clonal growth lookup needed for CCCCC(=O)C(=O)Nc1ccccc1 [#3, 2-oxo-hexanoic acid phenylamide] , thanks.
Result: ++(+)

Query: // Clonal growth lookup, key: O=C1N(c2ccccc2)N(c2ccccc2)C(=O)C1(O)Cc1ccccc1 [#9]
Result: +

Next molecule, Clonal growth to be filled in.
Query: Need Clonal growth of CCCCC1(O)C(=O)N(c2ccccc2)N(c2ccccc2)C1=O [#11] , thanks.
Result: ++
